system: SK-MEL-28; experiment: NCI tumour cell line growth inhibition, 48 h
Calls of active or inactive are those of the source. No stated cut-off is given here; in the data, active = GI50 up to about 1.1 µM and inactive = higher.
GI50 values by entry

molecule	GI50
CC(C)CC(=O)CC(O)C(Cl)(Cl)Cl (centres undefined)	> 100 µM (inactive)
Cc1ccc2c(c1C)C(=O)C1(C2)Cc2ccc3c(c2C1=O)CCC3 (centres undefined)	> 100 µM (inactive)
COc1cc(-c2ccccc2N)c2cccnc2c1OC	17.9 µM (inactive)
CC(C)CC(N)C(=O)O (centres undefined)	> 100 µM (inactive)
O=[N+]([O-])c1cc(Cl)ccc1S(=O)(=O)c1ccc(Cl)cc1[N+](=O)[O-]	18.1 µM (inactive)
CCCN(C(=O)c1c(Cl)nnc(Cl)c1C(=O)c1cc(Cl)nnc1Cl)c1cc(Cl)nnc1Cl	12.9 µM (inactive)
CN(C)CCOc1ccc([N+](=O)[O-])c2cccnc12	> 100 µM (inactive)
CCCCCCCCCC[S+]([O-])CC(CO)NC(=O)/C=C/c1c(C)nc(O)nc1O (centres undefined)	1.21 µM (inactive)
NC(Cc1ccc(S(=O)(=O)O)cc1)C(=O)NC(Cc1ccc(S(=O)(=O)O)cc1)C(=O)NC(Cc1ccc(S(=O)(=O)O)cc1)C(=O)NC(Cc1ccc(S(=O)(=O)O)cc1)C(=O)O (centres undefined)	> 100 µM (inactive)
CCOC(=O)c1nc2ccc(C(F)(F)F)cc2nc1NCc1ccc(F)cc1	44 µM (inactive)
Clc1ccc(Cc2nc3cc(Cl)ccc3o2)cc1	41.4 µM (inactive)
COc1cc2cc3c4c(cc(OC)c(OC)c4c2cc1OC)CCN3C(=O)CCCC(=O)O	> 100 µM (inactive)
C=CCCC(O)c1cc(C)c(O)c(C)c1 (centres undefined)	> 100 µM (inactive)
Fc1cc(C2=C[C@H](c3ccc(Cl)cc3)NC(=S)N2)c(Cl)cc1Cl	> 100 µM (inactive)
C[C@]12CC=CC(=O)[C@@]1(C)CCC(=O)C2	> 100 µM (inactive)
CC(=O)c1ccc(Oc2ccc(/C(C)=N\N=C(N)N)cc2)cc1	4.68 µM (inactive)
Nc1ccc(CCN2CCN(c3cccc(C(F)(F)F)c3)CC2)cc1	> 100 µM (inactive)
CCOC(=O)C1=C(Nc2ccccc2)SC/C1=N\NC(=O)Cc1ccccc1	> 100 µM (inactive)
O=C1NC(=S)NC1C(Cc1ccccc1)c1ccco1 (centres undefined)	> 100 µM (inactive)

----------
system: MDA-MB-231; experiment: NCI tumour cell line growth inhibition, 48 h
The source made the active and inactive calls. Rule as the data show it: active = GI50 up to about 1.1 µM and inactive = higher. *1 amine or outer side, *2 acyl side, *3 side chain or, on linkers, in order; H or OH if unused. Where a SMILES comes first, the peptide text is derived from it. Bridges are numbered along the chain shown (N, C = ends). [ ]: non-standard residue; d: D form. The star is where a group is joined. X36 = O=C(C(CCCCNO[*:3])N[*:1])[*:2]; Fmoc = O=C(OCC1c2ccccc2-c2ccccc21)*
Labels: active, inactive

compound	class.name
Cc1ccc([N+](=O)[O-])cc1S(=O)(=O)Nc1ccc(C2=NOC(c3ccccc3O)C2)cc1 (configuration not stated)	inactive
C=C1CC(COc2ccc3ccc(=O)oc3c2)(c2ccccc2)OC1=O (configuration not stated)	inactive
COc1cc2oc(-c3ccc(O)cc3)cc(=O)c2c(OC)c1OC	inactive
COc1cc(NCc2ccc3nc(N)nc(N)c3c2C)cc(OC)c1OC	inactive
O=C(CN1CCOCC1)c1ccc2c(c1)oc(=O)n2CCN1CCCCC1	inactive
NC(=O)c1c2c(n3ccccc13)C(=O)c1ccccc1C2=O	inactive
COc1ccc(OC)c2c1-c1nnnn1CCC2(C)C	inactive
CCCN(C(=O)c1c(Cl)nnc(Cl)c1C(=O)c1cc(Cl)nnc1Cl)c1cc(Cl)nnc1Cl	inactive
NC(=O)C(N)CC12CC3CC(CC(C3)C1)C2 (configuration not stated)	inactive
O=C1CCC[C@]2(CCC[C@@H](O)C2)N1	inactive
O=C(O)c1nc2ccc(C(F)(F)F)cc2nc1Nc1ccc(Cl)c(Cl)c1	inactive
NC(=O)CNC(=O)C1CCCN1C(=O)C1CCCCNOC(=O)CCC(NC(=O)OCC2c3ccccc3-c3ccccc32)C(=O)NC(Cc2c[nH]c3ccccc23)C(=O)N1 (configuration not stated) (Fmoc-EW[X36]PG-NH2; ester 1-3; configuration not given here)	inactive
C/C(=N\NC(=[Se])N1CCN(c2ccccn2)CC1)c1ccccn1	active
CC(=O)Nc1ccc2c3c(cc(O)c2c1)N(C(=O)CCCCC(=O)N1CC(CCl)c2c1cc(O)c1cc(NC(C)=O)ccc21)CC3CCl (configuration not stated)	active
Cc1cc(O)c2c(c1)C(C1OC(CO)C(O)C(O)C1O)c1cc(O)cc(O)c1C2=O (configuration not stated)	inactive
COC(=O)/C=C\Sc1ccn(/C=C\C(=O)OC)c(=S)n1	inactive
Cc1cccc(Nc2cc(Cl)nc(SCC(=O)O)n2)c1C	inactive
CC(Oc1ccc(Oc2cnc3ccc(Cl)cc3n2)cc1)C(=O)O (configuration not stated)	inactive
O=C(NC1(C(=O)O)CC1c1ccccc1)c1ccccc1 (configuration not stated)	inactive
S=C1CC(c2ccccc2)Sc2ccc(Cl)cc2N1 (configuration not stated)	inactive
CC(=O)NC(NCCN)(c1ccccc1)c1ccccc1	inactive
COc1ccc(/C=C/C(=O)N[C@@H]2C(=O)N3[C@@H]2SC(C)(C)[C@@H]3C(=O)O)cc1OC	inactive
CCN1C(=O)C(=C/C=C/c2ccc([N+](=O)[O-])cc2)C(=O)N(CC)C1=S	inactive
COc1ccc(N2C(=O)C3c4[nH]c5c(C)cccc5c4C4CCC(c5ccccc5)CC4C3C2=O)cc1 (configuration not stated)	inactive
Cc1occc1C(=S)Nc1ccc(Cl)c(C(=O)OCC(C)C)c1	inactive
c1ccc(C2C3=C(CCCC3)Nc3nnnn32)cc1 (configuration not stated)	inactive
O=N/N=c1\o[n-][n+](CCc2ccccc2)c1Cc1/c(=N/N=O)o[n-][n+]1CCc1ccccc1	inactive
